Data origin, for the record: patent US20220257596A1

- System: SCD1 protein production in SZ95-SCD1-HiBit cells
- experiment: Measurement of SCD1 expression in SZ95-SCD1-HiBit cells (HiBiT assay)
- Assay type: cell-based
- runConditions: Homo sapiens; SZ95-SCD1-HiBit cells, 48h incubation, top concentration 18 μM
Give EC50 for every item shown.
Write the value in µM as a bare number.

[ask] Give EC50 for this entry on SCD1 protein production in SZ95-SCD1-HiBit cells: C[C@H](CCOc1cccc(C(C)(C)C(=O)O)c1)N(Cc1cccc(C(F)(F)F)c1Cl)CC(c1ccccc1)c1ccccc1
[reply] 0.0009

[ask] Give EC50 for this entry on SCD1 protein production in SZ95-SCD1-HiBit cells: CCOC(=O)Cn1nc(C(F)(F)F)cc1-c1ccc(-c2cccc(S(C)(=O)=O)c2)cc1
[reply] 0.111

[ask] Give EC50 for this entry on SCD1 protein production in SZ95-SCD1-HiBit cells: O=C(O)Cn1ccc2c(OCCCN(Cc3cccc(C(F)(F)F)c3Cl)CC(c3ccccc3)c3ccccc3)cccc21
[reply] 0.0049

[ask] Give EC50 for this entry on SCD1 protein production in SZ95-SCD1-HiBit cells: CCN(Cc1ccccc1)c1ccc(C(O)(C(F)(F)F)C(F)(F)F)cc1Cl
[reply] 0.323

* * *

- System: SCD1 protein production in SZ95-SCD1-HiBit cells
- experiment: Measurement of SCD1 expression in SZ95-SCD1-HiBit cells (HiBiT assay)
- Type: cell-based
- runConditions: Homo sapiens; SZ95-SCD1-HiBit cells, 48h incubation, top concentration 18 μM
attributeMeasured: EC50

[ask] Quote EC50 reported for CC(C)(O)c1cn(-c2ccc(-c3cc(F)c(CO)c(S(C)(=O)=O)c3)cc2F)c(C(C)(C)c2c(Cl)cccc2Cl)n1 please.
[reply] > 18 µM

[ask] Quote EC50 reported for CN(C)C(=O)c1ccc(N2CCC(C3CCN(S(=O)(=O)c4ccccc4Cl)CC3)CC2)cc1Cl please.
[reply] > 18 µM

[ask] Quote EC50 reported for Fc1ccc(-c2c3cccc(C(F)(F)F)c3nn2Cc2ccc(F)cc2Cl)cc1 please.
[reply] > 18 µM
